Every entry's value here was drawn from patent US20220204611A1.

subject of test: T1, human TREM2 (human, UniProt Q9NZC2 19-174, limits assumed)
T1 sequence: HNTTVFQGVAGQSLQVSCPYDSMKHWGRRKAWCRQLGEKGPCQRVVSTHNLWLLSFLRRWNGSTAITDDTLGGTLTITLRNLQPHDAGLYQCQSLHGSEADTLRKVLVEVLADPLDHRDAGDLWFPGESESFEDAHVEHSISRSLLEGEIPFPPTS
run description: yeast-displayed Fab FACS, 1st screen 110 nM

| binder | endpoint unit | binding signal fold over 6E7 parental |
| --- | --- | --- |
| V55 (Fab, V domains shown) VH: EVQLVQSGAEVKKPGESLKISCKGSGYSFTSYWIAWVRQMPGKGLEWMGIIYPGDSDTIYSPSHQGQVTISADKSISTAYLQWSSLKASDTAMYFCARQRTFYYDSSDYFDYWGQGTLVTVSS VL: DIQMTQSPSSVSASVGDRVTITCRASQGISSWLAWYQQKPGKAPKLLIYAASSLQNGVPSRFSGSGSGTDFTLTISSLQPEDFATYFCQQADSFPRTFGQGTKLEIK | fold | 0.24 |
